Biological target: α2-GABAA receptor (Rattus norvegicus, UniProt P18508+P23576)
Assay: Ligand-binding assay, radiolabeled flumazenil competition, rat spinal cord membranes
Details: read-out: % Inhibition (10^−5 M), affinity for α2-GABAA receptor
inhibition at 10 µM vs 90%: at or above is fulfilled, below is not fulfilled.

> print(dat)
                                   compound          class
1  CCN(c1cccc(-c2ccnc3c(C(=O)c4cccs4)cnn23)c1)S(=O)(=O)C(C)C [Example 24]  not fulfilled

In plain terms: is recorded inhibition at 10 µM at least 90% for CCN(c1cccc(-c2ccnc3c(C(=O)c4ccc(F)cc4)cnn23)c1)S(C)(=O)=O [Example 52] ?
not fulfilled

In plain terms: is recorded inhibition at 10 µM at least 90% for CN(c1cccc(-c2ccnc3c(C(=O)c4cccs4)cnn23)c1)S(=O)(=O)c1cccc(Cl)c1 [Example 78] ?
not fulfilled

In plain terms: is recorded inhibition at 10 µM at least 90% for CN(c1cccc(-c2ccnc3c(C(=O)c4cccs4)cnn23)c1)S(=O)(=O)c1cccs1 [Example 87] ?
fulfilled

In plain terms: is recorded inhibition at 10 µM at least 90% for CCN(c1cccc(-c2ccnc3c(C(=O)c4ccncc4)cnn23)c1)S(C)(=O)=O [Example 46] ?
fulfilled

In plain terms: is recorded inhibition at 10 µM at least 90% for CCS(=O)(=O)N(C)c1cccc(-c2ccnc3c(C(=O)c4cccs4)cnn23)c1 [Example 20] ?
fulfilled

In plain terms: is recorded inhibition at 10 µM at least 90% for CCN(c1cccc(-c2ccnc3c(C(=O)c4ccccc4)cnn23)c1)S(C)(=O)=O [Example 70] ?
fulfilled
